Origin of measurements: paper PMC7169845

System: S. mansoni adults
Test: Phenotypic screen of S. mansoni adult worms (severity score)
Assay type: cell-based, Schistosoma mansoni
Details: 1 h, score 0-4
READOUT_NAME: ADULT SEVERITY SCORES @ 10 µM, 1 h
The reply should be a number, written without any unit.

For orientation, consider the following solved cases.
Cc1ccc(-n2cc(Cn3c(C(C)N4C(=O)c5ccccc5C4=O)nc4ccccc43)nn2)cc1 (centres unmarked) :: 0
CC(c1nc2ccccc2n1Cc1cn(-c2ccc(F)cc2)nn1)N1C(=O)c2ccccc2C1=O (centres unmarked) :: 0
CCC(C)C(c1nc2ccccc2n1Cc1cn(-c2ccccc2F)nn1)N1C(=O)c2ccccc2C1=O (centres unmarked) :: 0
CCC(C)C(c1nc2ccccc2n1Cc1cn(-c2ccc(F)cc2F)nn1)N1C(=O)c2ccccc2C1=O (centres unmarked) :: 0

Looking for the measured ADULT SEVERITY SCORES @ 10 µM, 1 h of CCC(C)C(c1nc2ccccc2n1Cc1cn(-c2c(F)cccc2F)nn1)N1C(=O)c2ccccc2C1=O (centres unmarked) , can you help? 0
